All figures here come from patent US20250032632A1.

measured on: T1, rat cMET-Fc (rat, UniProt P97523 25-935)
T1 construct: Construct named only as rMET-Fc; also called rMET-Fc; not shown: Fc part
assay method text: SPR, rMET-Fc
observed property: Kd

Illustrative cases are given below, each with its answer.
Chimeric P3D12 (antibody, V domains shown, Mouse P3D12 variable regions with human constant regions) VH: QVQLQQSGAELAKPGASVKMSCRASGYTFTSYWMHWVKQRPGQGLDWIGYIKPSTDNTEYNQKFKDKATLTADKSSSTAYMQLSSLTSEDSAVYYCARSYGNYPLMDYWGQGTSVTVSS VL: QIVLTQSPAIMSASPGEKVTLTCSASSSVTSNYLYWYQQKPGSSPKLWIYSTSNLASGVPARFSGSGSGTSYSLTISSMEAEDAASYFCHQWSSYPPTFGSGTKLEIKR
30 nM
G2akc (humanized P3D12, VH-abb/sdr + VL-cdr) (antibody, V domains shown, Humanized and isotype switched version of P3D12) VH: QVQLVQSGAEVKKPGASVKVSCKASGYTFTSYWMHWVKQAPGQGLDWMGYIKPSTDNTEYAQKFQGRVTLTADKSTSTAYMELSSLRSEDTAVYYCARSYGNYPLMDYWGQGTTVTVSS VL: QIVLTQSPATLSLSPGERATLSCSASSSVTSNYLYWYQQKPGSSPRLLIYSTSNLASGVPARFSGSGSGTSYTLTISRLEPEDFASYFCHQWSSYPPTFGSGTKLEIKR
38 nM

What value of Kd has been reported for the following binder? G2akf (humanized P3D12, VH-abb/sdr + VL-fra) (antibody, V domains shown, Humanized and isotype switched version of P3D12) VH: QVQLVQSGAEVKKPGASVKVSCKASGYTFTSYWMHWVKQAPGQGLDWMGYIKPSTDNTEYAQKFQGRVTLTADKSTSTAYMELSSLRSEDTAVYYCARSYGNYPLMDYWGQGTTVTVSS VL: QIVLTQSPAILSLSPGERATLSCSASSSVTSNYLYWYQQKPGSSPKLLIYSTSNLASGVPARFSGSGSGTSYTLTISSLEAEDAASYFCHQWSSYPPTFGSGTKLEIKR
23 nM
